These data points were gathered from PubChem BioAssay AID1259354.

systemUnderTest: Interleukin-1 receptor-like 1 (Homo sapiens) (UniProt Q01638)
Sequence (Q01638 whole entry, looked up): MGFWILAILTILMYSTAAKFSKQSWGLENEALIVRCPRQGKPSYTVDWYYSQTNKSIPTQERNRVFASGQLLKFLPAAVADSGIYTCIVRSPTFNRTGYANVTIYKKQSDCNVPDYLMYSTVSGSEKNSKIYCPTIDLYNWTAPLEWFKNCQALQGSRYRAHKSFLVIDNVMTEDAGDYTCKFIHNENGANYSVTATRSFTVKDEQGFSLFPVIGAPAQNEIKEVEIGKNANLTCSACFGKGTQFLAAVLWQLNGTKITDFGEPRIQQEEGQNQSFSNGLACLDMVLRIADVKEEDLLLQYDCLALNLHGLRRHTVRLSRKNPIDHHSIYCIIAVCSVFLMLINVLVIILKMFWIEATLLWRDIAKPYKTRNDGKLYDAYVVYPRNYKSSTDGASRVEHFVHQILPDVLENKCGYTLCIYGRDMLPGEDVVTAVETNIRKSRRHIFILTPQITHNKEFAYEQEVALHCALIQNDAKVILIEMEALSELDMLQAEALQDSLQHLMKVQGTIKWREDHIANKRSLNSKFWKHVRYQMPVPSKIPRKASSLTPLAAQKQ
testDetails: inhibitors of human ST2 (IL1RL1) binding to IL-33, primary screen, biochemical, AlphaLISA (AID 1259354)
testSettings: AlphaLISA ST2-Fc/biotin-IL-33 interaction, 1 h; at 17 µM
About 1,800 (2.3%) of roughly 78,000 compounds were called active. About 27% were inconclusive and are not listed. No stated cut-off is given here; in the data, active means inhibition above about 30%; inconclusive means mostly about 10% to 28%; inactive means weaker than that. Only a selection was taken, and actives are over-represented in it overall.
Possible outcomes: active, inactive

>  <compound>
O=C1NN=C(c2ccccc2)/C1=C/c1ccc(-c2ccc(Cl)cc2)o1

>  <className>
active

$$$$
>  <compound>
Cc1ccncc1C(=O)N1CCC(=O)N(CC2CC2)C(C(C)C)C1 (stereo not given)

>  <className>
inactive

$$$$
>  <compound>
O=C(NC1CCCCCCC1)c1cccs1

>  <className>
inactive

$$$$
>  <compound>
Cc1ccc2ncc(NC(=O)c3cccs3)c(=O)n2c1

>  <className>
active

$$$$
>  <compound>
O=C1N=C(N2CCOCC2)S/C1=C/c1ccc(F)cc1

>  <className>
inactive

$$$$
